These compounds were tested on BCL2 (Homo sapiens); IC50 is the recorded read-out.
Sequence (P10415 whole entry): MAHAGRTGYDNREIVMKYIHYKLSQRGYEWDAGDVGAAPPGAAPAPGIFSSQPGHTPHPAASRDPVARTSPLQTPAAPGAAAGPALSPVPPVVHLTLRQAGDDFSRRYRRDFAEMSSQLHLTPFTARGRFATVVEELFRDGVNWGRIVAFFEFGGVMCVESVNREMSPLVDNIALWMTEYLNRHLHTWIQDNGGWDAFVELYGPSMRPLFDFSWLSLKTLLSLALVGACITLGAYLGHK
MEASURED METRIC: IC50 (nM)

CN(C)CC[C@H](CSc1ccccc1Cl)Nc1ccc(S(=O)(=O)Nc2nc(C(F)(F)F)nc3c2CCN(C2CCN(Cc4ccccc4-c4ccc(Cl)cc4)CC2)C3)cc1S(=O)(=O)C(F)(F)F	73

A. CN1CCN(CC[C@H](CSc2ccccc2F)Nc2ccc(S(=O)(=O)Nc3ncnc4c3CCN(C3CCN(CC5=C(c6ccc(Cl)cc6)CC(C)(C)CC5)CC3)C4)cc2S(=O)(=O)C(F)(F)F)CC1
B. CC(c1ccccc1-c1ccc(Cl)cc1)N1CCC(N2CCc3c(ncnc3NS(=O)(=O)c3ccc(N[C@H](CCN(C)C)CSc4ccccc4Cl)c(S(=O)(=O)C(F)(F)F)c3)C2)CC1 (stereo partly shown)
C. O=S(=O)(Nc1ncnc2c1CCN(C1CCN(Cc3ccccc3-c3ccc(Cl)cc3)CC1)C2)c1ccc(N[C@H](CCN2CCOCC2)CSc2ccccc2)c(S(=O)(=O)C(F)(F)F)c1
Problem: With regard to IC50, arrange the entries in ascending order, please. // ordering of labels required in reply
Solution: A, B, C
